# assay_info: Efflux ratio of apparent permeability from basolateral to apical side over apical to basolateral side in human Caco2 cells at 100 uM after 120 mins by UV-Vis spectrophotometry
# Format: ADME, cell-based
# condition_label: Caco-2
Classify as follows. Reported efflux ratio at 2 h, 100 µM greater than or equal to 4: true. Reported efflux ratio at 2 h, 100 µM below: false.

As a guide, the following entries are already answered.
COc1ccc(-c2ccc3c(c2)C=C(CCN2CCc4cc(OC)c(OC)cc4C2)CO3)cc1 :: true
COc1ccc(-c2ccc(NCCCN3CCc4cc(OC)c(OC)cc4C3)cc2)cc1 :: false
COc1ccc(-c2ccc(OCCCN3CCc4cc(OC)c(OC)cc4C3)cc2)cc1 :: true
COc1ccc(-c2ccc(OCCCCN3CCc4cc(OC)c(OC)cc4C3)cc2)cc1 :: true
COc1ccc(-c2ccc(CN3CCc4cc(OC)c(OC)cc4C3)cc2)cc1 :: true
COc1ccc(-c2ccc(C(=O)N3CCc4cc(OC)c(OC)cc4C3)o2)cc1 :: true
COc1ccc(-c2ccc(OCCN3CCc4cc(OC)c(OC)cc4C3)cc2)cc1 :: true

Turning now to a further molecule:
Dear colleague, could you confirm whether COc1ccc(-c2ccc3c(c2)C=C(CC(=O)N2CCc4cc(OC)c(OC)cc4C2)CO3)cc1 has efflux ratio at 2 h, 100 µM at or above 4?
false
